# TGT: GST-Nv-NF-kB (Ser allele) (Nematostella vectensis, UniProt A7UNT2 2-411)
# Sequence: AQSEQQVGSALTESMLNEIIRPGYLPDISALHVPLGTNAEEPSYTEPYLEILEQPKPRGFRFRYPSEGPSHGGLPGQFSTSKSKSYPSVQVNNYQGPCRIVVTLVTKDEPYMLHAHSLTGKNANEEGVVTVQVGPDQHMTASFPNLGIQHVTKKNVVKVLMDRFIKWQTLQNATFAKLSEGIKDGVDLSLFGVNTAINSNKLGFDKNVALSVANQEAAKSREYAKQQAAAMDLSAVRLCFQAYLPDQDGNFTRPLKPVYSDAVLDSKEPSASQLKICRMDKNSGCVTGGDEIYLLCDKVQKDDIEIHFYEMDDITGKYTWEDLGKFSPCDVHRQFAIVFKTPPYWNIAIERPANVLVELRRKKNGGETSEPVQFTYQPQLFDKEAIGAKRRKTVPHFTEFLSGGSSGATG
# TEST NAME: protein-binding microarray (PBM); PBM: ~300 nM protein, 6 mM HEPES pH 7.8, 80 mM KCl, 0.5 mM EDTA, 0.5 mM EGTA, 6% glycerol, 35 ng/ul poly-dIdC, 1% milk, 1 h, room temperature; high values mean tight binding
# CONDITION INFO: dsDNA, one strand shown
For each record, write down the corresponding binding signal.
One number for each entry, in z-score.

# count of solved cases: 6
{"ITEM SEQUENCE": "CCGATTAACATCACGCAATTCCCTGATGTTAATCGGGTCTTGATTCGCTTGACGCTGCTG", "binding signal [z-score]": 4.54}
{"ITEM SEQUENCE": "CCGATTAACATCAGGCCACCCCCTGATGTTAATCGGGTCTTGATTCGCTTGACGCTGCTG", "binding signal [z-score]": 2.48}
{"ITEM SEQUENCE": "CCGATTAACATCAAGGGAATACCTGATGTTAATCGGGTCTTGATTCGCTTGACGCTGCTG", "binding signal [z-score]": 4.14}
{"ITEM SEQUENCE": "CCGATTAACATCAGGTAACTACCTGATGTTAATCGGGTCTTGATTCGCTTGACGCTGCTG", "binding signal [z-score]": 1.88}
{"ITEM SEQUENCE": "CCGATTAACATCAGGGGAGAACCTGATGTTAATCGGGTCTTGATTCGCTTGACGCTGCTG", "binding signal [z-score]": 5.63}
{"ITEM SEQUENCE": "CCGATTAACATCACGGGAATTTCTGATGTTAATCGGGTCTTGATTCGCTTGACGCTGCTG", "binding signal [z-score]": 6.48}

Hi, could you look up binding signal for each item in my list?
1. CCGATTAACATCAACAAAGTCCCTGATGTTAATCGGGTCTTGATTCGCTTGACGCTGCTG
2. CCGATTAACATCAGGGATCTACCTGATGTTAATCGGGTCTTGATTCGCTTGACGCTGCTG
3. CCGATTAACATCAGGACAGTCCCTGATGTTAATCGGGTCTTGATTCGCTTGACGCTGCTG

6.52
1.74
2.87

###

# TGT: GST-Hu-p50 (Homo sapiens, UniProt P19838 7-356)
# Sequence (P19838 7-356): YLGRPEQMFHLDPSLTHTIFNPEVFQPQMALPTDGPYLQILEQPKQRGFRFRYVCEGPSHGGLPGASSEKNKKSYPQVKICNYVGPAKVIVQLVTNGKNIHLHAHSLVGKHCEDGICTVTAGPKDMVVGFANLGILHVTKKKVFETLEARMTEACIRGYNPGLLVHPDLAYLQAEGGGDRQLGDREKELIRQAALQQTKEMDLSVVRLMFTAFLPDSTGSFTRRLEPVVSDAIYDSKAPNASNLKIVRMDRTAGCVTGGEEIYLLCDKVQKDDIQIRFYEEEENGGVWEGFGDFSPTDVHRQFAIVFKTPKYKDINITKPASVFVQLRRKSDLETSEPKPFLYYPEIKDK
# TEST NAME: protein-binding microarray (PBM); PBM: ~300 nM protein, 6 mM HEPES pH 7.8, 80 mM KCl, 0.5 mM EDTA, 0.5 mM EGTA, 6% glycerol, 35 ng/ul poly-dIdC, 1% milk, 1 h, room temperature; Ap Aiptasia and Nv Nematostella (sea anemones) / Co Capsaspora / Aq Amphimedon (sponge) / Dm Drosophila / Hu human; RHD is the Rel homology domain; high values mean tight binding
# CONDITION INFO: dsDNA, one strand shown
Lab note: compare binding signal with 4 z-score, writing class 1 if less and class 0 if equal or more.

Consider the worked cases shown below.
{"ITEM SEQUENCE": "CCGATTAACATCAACGGGTCCCTTGATGTTAATCGGGTCTTGATTCGCTTGACGCTGCTG", "CATEGORY": "class 1"}
{"ITEM SEQUENCE": "CCGATTAACATCAGGGAGATTTGTGATGTTAATCGGGTCTTGATTCGCTTGACGCTGCTG", "CATEGORY": "class 1"}
{"ITEM SEQUENCE": "CCGATTAACATCACGCAACCCCCTGATGTTAATCGGGTCTTGATTCGCTTGACGCTGCTG", "CATEGORY": "class 0"}

Could you please tell me whether binding signal recorded for "CCGATTAACATCAGGGAAAACACTGATGTTAATCGGGTCTTGATTCGCTTGACGCTGCTG" is less than 4 z-score?
class 0

Could you please tell me whether binding signal recorded for "CCGATTAACATCAAAGTTTTCCCTGATGTTAATCGGGTCTTGATTCGCTTGACGCTGCTG" is less than 4 z-score?
class 0

Could you please tell me whether binding signal recorded for "CCGATTAACATCAGGGAATATAATGATGTTAATCGGGTCTTGATTCGCTTGACGCTGCTG" is less than 4 z-score?
class 1

Could you please tell me whether binding signal recorded for "CCGATTAACATCAGGGGGCAAGATGATGTTAATCGGGTCTTGATTCGCTTGACGCTGCTG" is less than 4 z-score?
class 1

Could you please tell me whether binding signal recorded for "CCGATTAACATCACGCAATTCCCTGATGTTAATCGGGTCTTGATTCGCTTGACGCTGCTG" is less than 4 z-score?
class 1

Could you please tell me whether binding signal recorded for "CCGATTAACATCAGACAATTCCCTGATGTTAATCGGGTCTTGATTCGCTTGACGCTGCTG" is less than 4 z-score?
class 0

Could you please tell me whether binding signal recorded for "CCGATTAACATCACGGGACCCCCTGATGTTAATCGGGTCTTGATTCGCTTGACGCTGCTG" is less than 4 z-score?
class 1

Could you please tell me whether binding signal recorded for "CCGATTAACATCAAGTCCCCCAATGATGTTAATCGGGTCTTGATTCGCTTGACGCTGCTG" is less than 4 z-score?
class 0

Could you please tell me whether binding signal recorded for "CCGATTAACATCAGGACCGTCCCTGATGTTAATCGGGTCTTGATTCGCTTGACGCTGCTG" is less than 4 z-score?
class 1

Could you please tell me whether binding signal recorded for "CCGATTAACATCACCCAAAGTTTTGATGTTAATCGGGTCTTGATTCGCTTGACGCTGCTG" is less than 4 z-score?
class 1

Could you please tell me whether binding signal recorded for "CCGATTAACATCAGGAGTTTCCCTGATGTTAATCGGGTCTTGATTCGCTTGACGCTGCTG" is less than 4 z-score?
class 0

Could you please tell me whether binding signal recorded for "CCGATTAACATCAGGGAGTTACCTGATGTTAATCGGGTCTTGATTCGCTTGACGCTGCTG" is less than 4 z-score?
class 1

Could you please tell me whether binding signal recorded for "CCGATTAACATCAGGAGATTCCCTGATGTTAATCGGGTCTTGATTCGCTTGACGCTGCTG" is less than 4 z-score?
class 0

Could you please tell me whether binding signal recorded for "CCGATTAACATCACGGGATTTACTGATGTTAATCGGGTCTTGATTCGCTTGACGCTGCTG" is less than 4 z-score?
class 1

Could you please tell me whether binding signal recorded for "CCGATTAACATCATAAGGGGTGTTGATGTTAATCGGGTCTTGATTCGCTTGACGCTGCTG" is less than 4 z-score?
class 1
